# targetSystem: full length, heterotrimeric human RPA (fl-RPA) (Homo sapiens (Human), UniProt P27694)
# Sequence (P27694 whole entry): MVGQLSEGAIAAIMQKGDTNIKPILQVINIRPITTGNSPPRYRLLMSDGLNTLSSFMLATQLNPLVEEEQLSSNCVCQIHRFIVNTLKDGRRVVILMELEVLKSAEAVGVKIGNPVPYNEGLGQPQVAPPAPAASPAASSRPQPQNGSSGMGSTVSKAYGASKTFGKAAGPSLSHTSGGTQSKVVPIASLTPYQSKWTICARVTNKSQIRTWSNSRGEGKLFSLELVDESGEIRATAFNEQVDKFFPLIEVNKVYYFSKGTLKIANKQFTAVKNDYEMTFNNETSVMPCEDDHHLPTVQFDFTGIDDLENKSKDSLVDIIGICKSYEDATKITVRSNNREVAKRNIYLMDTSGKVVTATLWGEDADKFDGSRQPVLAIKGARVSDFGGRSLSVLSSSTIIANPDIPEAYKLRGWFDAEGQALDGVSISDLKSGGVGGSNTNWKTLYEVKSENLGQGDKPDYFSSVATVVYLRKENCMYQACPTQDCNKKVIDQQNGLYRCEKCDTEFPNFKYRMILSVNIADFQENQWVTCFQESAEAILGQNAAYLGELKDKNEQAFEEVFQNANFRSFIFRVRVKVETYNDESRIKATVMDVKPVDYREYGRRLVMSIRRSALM
# Sequence (P15927 whole entry partner): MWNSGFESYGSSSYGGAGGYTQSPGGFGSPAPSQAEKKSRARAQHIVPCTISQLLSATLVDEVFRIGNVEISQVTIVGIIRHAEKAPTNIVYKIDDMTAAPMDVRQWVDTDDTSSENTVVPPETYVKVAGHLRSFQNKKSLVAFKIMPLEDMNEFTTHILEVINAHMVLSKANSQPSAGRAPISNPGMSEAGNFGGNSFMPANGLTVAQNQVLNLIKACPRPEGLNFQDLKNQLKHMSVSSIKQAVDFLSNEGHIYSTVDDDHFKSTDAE
# Sequence (P35244 whole entry partner): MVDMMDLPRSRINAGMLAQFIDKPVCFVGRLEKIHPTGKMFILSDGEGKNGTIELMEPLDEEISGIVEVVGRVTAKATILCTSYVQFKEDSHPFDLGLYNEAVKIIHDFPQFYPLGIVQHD
# experimentalProtocol: EMSA for inhibition of RPA-DNA binding activity (full length RPA)
# conditionNotes: compounds titrated at 1-125 μM; read-out: IC50 calculated from EMSA reactions
Known IC50 of a selection of molecules

* COc1ccc(C2CC(c3ccc(C)cc3)=NN2C(=O)CCCC(=O)O)cc1OC (stereo not drawn) [b] | > 100 µM
* CCOc1ccc2cc(C3CC(c4ccc(C)cc4)=NN3C(=O)CCC(=O)O)c(Cl)nc2c1 (stereo not drawn) [e] | 80 µM

# context switch: different molecule, same IC50
Sure, the documented IC50 for COc1ccc2cc(C3CC(c4ccc(OC)c(OC)c4)=NN3C(=O)CCCC(=O)O)c(Cl)nc2c1 (stereo not drawn) [k] is > 100 µM

* * *

# targetSystem: full length, heterotrimeric human RPA (fl-RPA) (Homo sapiens (Human), UniProt P27694)
# experimentalProtocol: EMSA for inhibition of RPA-DNA binding activity (full length RPA)
# conditionNotes: EMSA, RPA incubated with compounds at 1-125 μM; read-out: In vitro IC50
measuredAttribute: IC50

Some molecules with recorded IC50:
- COc1ccc2cc(C3CC(c4ccc(Br)cc4)=NN3C(=O)CCCC(=O)O)c(Cl)nc2c1 (stereo not drawn) [TDRL-533]: > 50 µM
- CCOc1ccc2cc(C3CC(c4ccc(I)cc4)=NN3c3ccc(C(=O)O)cc3)c(Cl)nc2c1 (stereo not drawn) [NG-01-04]: > 100 µM

Sure, the documented IC50 for COc1ccc2cc(C3CC(c4ccc(F)cc4)=NN3C(=O)CCCC(=O)O)c(Cl)nc2c1 (stereo not drawn) [TDRL-540] is > 100 µM

The reported measurements were obtained from patent US10774063B2.
